TPE overview
Organism: Mus musculus
Experiment: Compound was tested for time to peak anticonvulsant effect (TPE)
Type: functional
Measured Metric: TPE (h)

INSERT INTO results (molecule, readout_units, reported_value) VALUES
  ('CC1COC(Cn2ccnc2)(c2ccc3c(c2)Cc2ccccc2-3)O1 (stereo unspecified)', 'h', 2),
  ('CCc1ccc2c(c1)Cc1cc(C(=O)Cn3ccnc3)ccc1-2.Cl', 'h', 1),
  ('O=C(OC(Cn1ccnc1)c1ccc2c(c1)Cc1ccccc1-2)c1ccccc1 (stereo unspecified)', 'h', 1),
  ('CC1c2ccccc2-c2ccc(C(=O)Cn3ccnc3)cc21 (stereo unspecified)', 'h', 2),
  ('O=C(Cn1cnc(-c2ccccc2)c1)c1ccc2c(c1)Cc1ccccc1-2', 'h', 2),
  ('c1ccc2cc(CCn3ccnc3)ccc2c1', 'h', 1);
